Attribution: the METLIN SMRT retention time set (Domingo-Almenara et al. 2019)

assay: gradient 5% acetonitrile 3 min, to 50% in 2 min, to 85% in 15 min, held 3 min, 100 µL/min; details: column: Zorbax Extend-C18 2.1 x 50 mm; eluents: water / acetonitrile, 0.1% formic acid
MEASUREMENT TYPE: RP-LC retention time (s)

The examples below pair each entry with its known result.
Entry `CCOC(=O)c1cc(C2CC2)nc2c1c(=O)n(Cc1ccc(OC)cc1)c(=O)n2C` , RP-LC retention time reported as 1170

Entry COc1ccc(OC)c(S(=O)(=O)N2CCCC(C(=O)NC(C)(C)C)C2)c1 (centres undefined) , RP-LC retention time reported as 768

Entry `Cn1cnc2cc(CNC(=O)c3ccc(C#N)cc3)ccc21` , RP-LC retention time reported as 578

Entry Cc1cc(C)c(S(=O)(=O)N2CCCC2c2nc(-c3ccccc3C)no2)cc1C (centres undefined) , RP-LC retention time reported as 1300

Entry `CCOc1ccc(NC(=O)Cn2c(CC)nc3c(c2=O)CN(Cc2ccccc2)CC3)cc1` , RP-LC retention time reported as 666

(1) Cc1cnc(C2CN(Cc3cccc(C#N)c3)C2)n1Cc1ccccc1
(2) Cc1ccc(Nc2nc(C(=O)NC3CCCCCC3)nc3ccccc23)cc1
Out of 1 and 2 , name the one with the higher RP-LC retention time. // respond with label for picked entry
2
(2: 966 s, 1: 582 s)
